- Tested target: Inadl_9, Q8NI35
- Sequence (Q8NI35 1530-1615): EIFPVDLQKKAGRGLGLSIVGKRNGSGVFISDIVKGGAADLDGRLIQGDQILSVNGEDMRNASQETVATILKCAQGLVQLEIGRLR
- Assay info: holdup assay
- Parameters: key: below the threshold = too weak to quantify, mostly under pKd 3.1 to 4
- Test parameters: plain residues with an end cap or a label only (N-terminal biotin on a linker: ado-ado)
Measured property: pKd
Form: value (number only, do not type unit).

Entry MQILSKPEFI [NPSR1, Q6W5P4] — recorded pKd = 3.64

Entry HLSTRQGTCV [ATRNL1, Q5VV63] — recorded pKd = 4.1

Values compiled from paper PMC9482650.
